- Test target: C-terminal truncated DDX3X (1-582) (Homo sapiens, UniProt O00571)
- Assay remarks: EMSA
Property measured: Kd (nM)
The answer is to be given in nM; state only the numeric part.

Q: Complete the entry with Kd for UUUUUUUUUUUUUUUUUUUUGGUGGUUGUG (ssRNA) [C]
Ans: 217
